# assayed_target: human AspH (His6-AspH315–758) (Homo sapiens, UniProt Q12797)
# Construct: N-Terminally His6-tagged human AspH315–758 (His6-AspH315–758) was produced in Escherichia coli BL21 (DE3) cells; made in house; host or cells: Escherichia coli BL21 (DE3), pET-28a(+) vector
# Sequence (Q12797 315-758): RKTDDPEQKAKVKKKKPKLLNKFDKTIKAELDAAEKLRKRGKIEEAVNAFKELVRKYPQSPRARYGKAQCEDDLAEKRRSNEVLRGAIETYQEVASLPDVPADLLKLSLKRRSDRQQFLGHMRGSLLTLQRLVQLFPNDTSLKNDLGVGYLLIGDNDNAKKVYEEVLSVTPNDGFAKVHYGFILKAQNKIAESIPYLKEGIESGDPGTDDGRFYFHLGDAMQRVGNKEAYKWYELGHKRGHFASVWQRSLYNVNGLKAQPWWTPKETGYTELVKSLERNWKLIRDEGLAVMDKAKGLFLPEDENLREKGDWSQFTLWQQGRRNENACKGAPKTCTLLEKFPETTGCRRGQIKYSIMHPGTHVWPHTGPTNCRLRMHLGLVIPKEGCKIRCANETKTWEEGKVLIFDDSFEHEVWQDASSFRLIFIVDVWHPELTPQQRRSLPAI
# experiment_summary: SPE-MS AspH inhibition assay (hFX-CP101-119 substrate hydroxylation)
# Format: biochemical
endpoint_label: Plate 1-duplicate (% inhibition) (%)
Field format: number, assumed %, no unit text.

- CCN(CC)CCCC(C)Nc1ccnc2cc(Cl)ccc12 (stereo not shown) [Chloroquine diphosphate]: 11.28
- CC(C)c1c(C(=O)Nc2ccccc2)c(-c2ccccc2)c(-c2ccc(F)cc2)n1CC[C@@H](O)C[C@@H](O)CC(=O)[O-].CC(C)c1c(C(=O)Nc2ccccc2)c(-c2ccccc2)c(-c2ccc(F)cc2)n1CC[C@@H](O)C[C@@H](O)CC(=O)[O-].[Ca+2]: -1.82
- O=[As]O[As]=O (stereo not shown) [Arsenic(III) oxide]: 4.39
- Cl.c1ccc(C2CN3CCSC3=N2)cc1 (stereo not shown) [Tetramisole HCl]: 7.87
- C1CN1c1nc(N2CC2)nc(N2CC2)n1: 2.63
- C[C@]12CC[C@@H]3c4ccc(OC(=O)N(CCCl)CCCl)cc4CC[C@H]3[C@@H]1CC[C@@H]2OP(=O)(O)O [Estramustine sodium phosphate]: 64.39

Let us move to another entry and its Plate 1-duplicate (% inhibition).
In: Would you mind telling me what Plate 1-duplicate (% inhibition) value was observed for O=P1(N(CCCl)CCCl)NCCCO1 (stereo not shown) [Clafen (Cyclophosphamide, Endoxan)] ?
Out: 2.67

---

# assayed_target: human AspH (His6-AspH315–758) (Homo sapiens)
# Construct: N-Terminally His6-tagged human AspH315–758 (His6-AspH315–758) was produced in Escherichia coli BL21 (DE3) cells; made in house; host or cells: Escherichia coli BL21 (DE3), pET-28a(+) vector
# Sequence (Q12797 315-758): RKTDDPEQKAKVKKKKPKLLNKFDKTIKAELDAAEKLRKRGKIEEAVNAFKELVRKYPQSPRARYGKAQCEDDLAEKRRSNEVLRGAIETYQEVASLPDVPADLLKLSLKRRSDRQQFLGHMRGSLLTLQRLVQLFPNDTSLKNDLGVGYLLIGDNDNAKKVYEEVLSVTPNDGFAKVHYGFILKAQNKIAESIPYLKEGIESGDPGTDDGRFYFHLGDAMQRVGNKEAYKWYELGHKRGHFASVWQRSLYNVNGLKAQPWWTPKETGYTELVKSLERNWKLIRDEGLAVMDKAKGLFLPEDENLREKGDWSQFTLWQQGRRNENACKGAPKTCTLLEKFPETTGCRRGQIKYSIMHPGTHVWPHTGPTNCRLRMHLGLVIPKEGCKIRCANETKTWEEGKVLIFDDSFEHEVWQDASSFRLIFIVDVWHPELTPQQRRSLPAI
# experiment_summary: SPE-MS AspH inhibition assay (hFX-CP101-119 substrate hydroxylation)
# Format: biochemical
# study_conditions: read-out: IC50 at 10 μM substrate; 10 μM hFX-CP101–119 and 10 μM 2OG instead of 1 μM hFX-CP101–119 and 3 μM 2OG
endpoint_label: IC50 (µM)
Report as a plain number; the unit µM is understood.

• CCCS(=O)(=O)Nc1ccc(F)c(C(=O)c2c[nH]c3ncc(-c4ccc(Cl)cc4)cc23)c1F [Vemurafenib, reference compound] = 16.9
• CN(C)CC[C@H](CSc1ccccc1)Nc1ccc(S(=O)(=O)NC(=O)c2ccc(N3CCN(Cc4ccccc4-c4ccc(Cl)cc4)CC3)cc2)cc1[N+](=O)[O-] [ABT-737, reference compound] = 2.99
• O=C(O)c1ccnc(C(=O)O)c1 [2,4-PDCA, Pyridine-2,4-dicarboxylic acid, reference compound] = 0.02
• O=C(/C=C/c1cccc(S(=O)(=O)Nc2ccccc2)c1)NO [Belinostat, reference compound] = 4.77
• Cc1cc2c(C(C)C)c(O)c(O)c(C=O)c2c(O)c1-c1c(C)cc2c(C(C)C)c(O)c(O)c(C=O)c2c1O [(R)-Gossypol, reference compound] = 0.33
• CC1(C)CCC(CN2CCN(c3ccc(C(=O)NS(=O)(=O)c4ccc(NCC5CCOCC5)c([N+](=O)[O-])c4)c(Oc4cnc5[nH]ccc5c4)c3)CC2)=C(c2ccc(Cl)cc2)C1 [Venetoclax, reference compound] = 1.57
• CC1(C)CCC(c2ccc(Cl)cc2)=C(CN2CCN(c3ccc(C(=O)NS(=O)(=O)c4ccc(N[C@H](CCN5CCOCC5)CSc5ccccc5)c(S(=O)(=O)C(F)(F)F)c4)cc3)CC2)C1 [Navitoclax, reference compound] = 1.21
• COc1c/c(=C2\C=c3ccccc3=N2)[nH]/c1=C\c1[nH]c(C)cc1C.CS(=O)(=O)O [Obatoclax, reference compound] = 9.44

In: State its IC50 on human AspH (His6-AspH315–758) (Homo sapiens): O=C(CCCCCCC(=O)Nc1ccc([C@H]2O[C@@H](CSc3nc(-c4ccccc4)c(-c4ccccc4)o3)C[C@@H](c3ccc(CO)cc3)O2)cc1)NO [Tubacin, reference compound]
Out: 3.57

In: Under human AspH (His6-AspH315–758) (Homo sapiens): IC50 value of CO[C@@H]1[C@H](N(C)C(=O)c2ccccc2)C[C@H]2O[C@]1(C)n1c3ccccc3c3c4c(c5c6ccccc6n2c5c31)C(=O)NC4 [Midostaurin, reference compound] ?
Out: 6.02
